All values here come from patent US20220249679A1.

# method-description: Size exclusion chromatography (SEC), percent monomer
# Assay type: physicochemical
# details: Table 19, after protein A purification

| molecule | SEC % Monomer [%] |
| --- | --- |
| F6 f1kf-rep: humanized anti-CD138 antibody; VH SEQ ID NO:91, VL SEQ ID NO:43 (antibody, V domains shown, Humanized Heavy chain variable region; Humanized Light chain variable region) VH: QVQLQQSGAEVVKPGASVKLSCKASGYTFTSYYLYWVKKAPGQGLDWIGEIYPRSGGTNINEKFLSRVTLTADTSTSTAYMDLSSLTSEDTAVYYCTRSLLYWGQGTTLTVSS VL: DVVMTQSPLSLSVTLGQPASISCKSSQSLLASDGKTYLNWLQQRPGQSPRRLIYLVSKLDSGVPNRFSGSGSGTDFTLQISRVEAEDVGLYYCWQGAHFPFTFGSGTKLEIKR | 94.3 |
| F6 akf-rep: humanized anti-CD138 antibody; VH SEQ ID NO:89, VL SEQ ID NO:43 (antibody, V domains shown, Humanized Heavy chain variable region; Humanized Light chain variable region) VH: QVQLVQSGAEVVKPGASVKLSCKASGYTFTSYYLYWVKKAPGQGLDWIGEIYPRSGGTNYAEKFQGRVTLTADTSTSTAYLELSSLTSEDTAVYYCTRSLLYWGQGTTLTVSS VL: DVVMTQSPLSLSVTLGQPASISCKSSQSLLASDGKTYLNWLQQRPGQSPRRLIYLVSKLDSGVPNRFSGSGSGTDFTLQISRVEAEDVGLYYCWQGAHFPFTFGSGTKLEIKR | 95.4 |
| F6 aka-rep: humanized anti-CD138 antibody; VH SEQ ID NO:89, VL SEQ ID NO:42 (antibody, V domains shown, Humanized Heavy chain variable region; Humanized Light chain variable region) VH: QVQLVQSGAEVVKPGASVKLSCKASGYTFTSYYLYWVKKAPGQGLDWIGEIYPRSGGTNYAEKFQGRVTLTADTSTSTAYLELSSLTSEDTAVYYCTRSLLYWGQGTTLTVSS VL: DVVMTQTPLSLSVTPGQPASISCKSSQSLLASDGKTYLNWLLQRPGQSPKRLIYLVSKLDSGVPNRFSGSGSGTDFTLQISRVEAEDVGLYYCMQGAHFPFTFGGGTKVEIKR | 75.2 |
